# Test system: MS2 coat protein
# test-summary: apparent KD of MS2 coat protein; higher = weaker reporter binding
# study-conditions: Eterna round: R107; input ligand: theophylline 20 uM
attribute-measured: apparent KD of MS2 coat protein (nM)
// note: answer is a bare numeric in nM

Look up and report measured apparent KD of MS2 coat protein for this entry: UUACAUGAGGAUCACCCAUGUCAUACAGAAGGAGCGUCACAUAAGACAGGUAGGUCGCUGUUAUUUAAUACUAUUAUAUCCUCUA [JR_Nu_ExcArginiA_Sub027]
44.9

Next:
Tell me apparent KD of MS2 coat protein reported for ACACAUGAGGAUCACCCAUGUGCGCUGGAAGGAGCGCAGAAUCAUGCAGGUAGGUCGCCAGUGCCCAUUACUAGAGGGAUAAGAG [Onriri]
101

Input CGCCACUCGAGUGAUCCUCACGAGUGGCUACGAGGACCGGUACGGCCGCCACUCGAAUUAACAUGAGGAUCACCCAUGUAAUCCA [Brourdmod09] , output reported apparent KD of MS2 coat protein.
217
